Cited source for all entries: patent US6203976A

- Tested on: human growth hormone (532) promoter
- assay-remarks: High-throughput luciferase reporter assay, human Growth Hormone promoter (Screen III)
- Type: cell-based
- assay-setup: Screen III inhibitors; 532 cells; 6 hours
Recorded FOLD INHIBITION RELATIVE TO SOLVENT CONTROL, hGH by entry
Number plus unit, in that order.

Consider the following illustrative entries.
>  <molecule>
O=S(=O)(O)c1ccc2c(N=Nc3ccc(S(=O)(=O)O)c4ccccc34)c(O)c(S(=O)(=O)O)cc2c1 [compound 512]

>  <result>
5.26 fold

$$$$
>  <molecule>
COC(=O)CP(=O)(OCC(F)(F)F)OCC(F)(F)F [compound 1651]

>  <result>
3.57 fold

$$$$
>  <molecule>
Cc1cc(C2(c3cc(C)c(O)c(CN(CC(=O)O)CC(=O)O)c3)OC(=O)c3ccccc32)cc(CN(CC(=O)O)CC(=O)O)c1O [compound 1773]

>  <result>
10.00 fold

$$$$
>  <molecule>
O=C(c1ccccc1)c1ccc(Br)cc1 [compound 1705]

>  <result>
14.28 fold

$$$$
>  <molecule>
Cc1n[nH]c(C)c1Br [compound 2009]

>  <result>
0.57 fold

$$$$
>  <molecule>
CC1=CC(=C(c2cc(C)c(O)c(C(=O)O)c2)c2c(Cl)ccc(S(=O)(=O)O)c2Cl)C=C(C(=O)O)C1=O [compound 556]

>  <result>
33.33 fold

$$$$
>  <molecule>
Nc1c(Br)cc([N+](=O)[O-])cc1[N+](=O)[O-] [compound 2010]

>  <result>
0.63 fold

$$$$
>  <molecule>
C(=Cc1ccccn1)c1ccccn1 [compound 1640]

>  <result>
5.00 fold

$$$$

Q. Record O=C(c1ccc(O)c(O)c1)c1c(O)cc(O)cc1O [compound 660] : what is its FOLD INHIBITION RELATIVE TO SOLVENT CONTROL, hGH with human growth hormone (532) promoter?
A. 0.34 fold

Q. Notebook entry, human growth hormone (532) promoter assay: FOLD INHIBITION RELATIVE TO SOLVENT CONTROL, hGH of O=P(O)(O)Oc1c[nH]c2ccc(Br)c(Cl)c12 [compound 541] = ?
A. 6.25 fold

Q. Which measured FOLD INHIBITION RELATIVE TO SOLVENT CONTROL, hGH belongs to Cc1c(C(=O)O)c(O)cc2c1C(=O)c1c(O)c([C@@H]3O[C@H](CO)[C@@H](O)[C@H](O)[C@H]3O)c(O)c(O)c1C2=O [compound 1770] , tested on human growth hormone (532) promoter?
A. 10.00 fold

---

- System: MMTV (M10) promoter
- assay-remarks: High-throughput luciferase reporter assay, MMTV promoter (Screen III)
- Assay type: cell-based, mouse
- assay-setup: Screen III activators; M10 cells; 6 hours
Define the label as 1.0 when FOLD INDUCTION RELATIVE TO SOLVENT CONTROL, MMTV is strictly less than 0.9 fold and as 0.0 in all remaining cases.

For orientation, consider the following solved cases.
>  <smiles-notation>
Nc1ccc2c(c1)Cc1ccccc1-2

>  <group-label>
0.0

$$$$
>  <smiles-notation>
COc1cc2oc(=O)cc(CBr)c2cc1OC

>  <group-label>
0.0

$$$$
>  <smiles-notation>
Cc1c(C2(c3cc(Br)c(O)c(Br)c3C)OS(=O)(=O)c3ccccc32)cc(Br)c(O)c1Br

>  <group-label>
1.0

$$$$
>  <smiles-notation>
Nc1nc(=O)n([C@H]2C[C@H](O)[C@@H](CO)O2)cc1Br

>  <group-label>
0.0

$$$$
>  <smiles-notation>
Cc1cc(N)sn1

>  <group-label>
0.0

$$$$
>  <smiles-notation>
NC1=NCCS1

>  <group-label>
1.0

$$$$

Q. Determine whether this compound shows FOLD INDUCTION RELATIVE TO SOLVENT CONTROL, MMTV lower than 0.9 fold (ties excluded): `O=C(O)c1ccc2c3c(ncnc13)-c1ccccc1C2=O`
A. 1.0

Q. Item `Clc1cc(Cl)cc(Br)c1` : FOLD INDUCTION RELATIVE TO SOLVENT CONTROL, MMTV beneath 0.9 fold, strictly?
A. 0.0

Q. Lab note: confirm whether the reported FOLD INDUCTION RELATIVE TO SOLVENT CONTROL, MMTV for this compound is below 0.9 fold, equality not counting. compound: `O=C(Nc1cccc(C2=NCCN2)c1)Nc1cccc(C2=NCCN2)c1`
A. 0.0
